- testTarget: T1, full-length human SIRPαV1 D→E on Expi-CHO cells (human, UniProt P78324 31-504)
- T1 construct: the entry already carries the change (PDDV to PEDV)
- T1 sequence (P78324 31-504 D130E): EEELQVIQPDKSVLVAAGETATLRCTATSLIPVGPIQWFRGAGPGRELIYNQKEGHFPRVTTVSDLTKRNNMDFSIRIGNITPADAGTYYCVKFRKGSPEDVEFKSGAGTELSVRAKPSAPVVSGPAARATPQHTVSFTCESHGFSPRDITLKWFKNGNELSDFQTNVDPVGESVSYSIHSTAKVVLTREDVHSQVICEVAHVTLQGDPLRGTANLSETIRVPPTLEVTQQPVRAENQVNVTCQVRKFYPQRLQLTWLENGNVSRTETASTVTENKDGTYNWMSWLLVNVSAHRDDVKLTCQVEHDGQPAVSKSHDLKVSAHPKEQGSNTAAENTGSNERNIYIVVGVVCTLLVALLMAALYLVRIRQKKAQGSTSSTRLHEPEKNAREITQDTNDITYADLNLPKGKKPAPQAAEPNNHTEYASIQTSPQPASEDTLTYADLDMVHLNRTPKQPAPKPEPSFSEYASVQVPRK
- measurementNotes: flow cytometry, Expi-CHO cells
measuredProperty: EC50 (nM)
// note: answer is a bare numeric in nM

For the binder shown here, Antibody E22 (antibody, human IgG1, kappa, L234A L235A, V domains shown) VH: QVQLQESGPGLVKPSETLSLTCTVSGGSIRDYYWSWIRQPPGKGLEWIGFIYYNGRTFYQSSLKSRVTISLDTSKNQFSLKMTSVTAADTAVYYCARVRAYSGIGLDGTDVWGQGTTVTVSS VL: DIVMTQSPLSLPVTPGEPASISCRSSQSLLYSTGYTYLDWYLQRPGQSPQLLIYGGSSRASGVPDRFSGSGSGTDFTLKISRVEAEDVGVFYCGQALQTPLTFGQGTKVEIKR , give the reported EC50. 0.7

For the binder shown here, Antibody C (antibody, human IgG1, kappa, L234A L235A, V domains shown) VH: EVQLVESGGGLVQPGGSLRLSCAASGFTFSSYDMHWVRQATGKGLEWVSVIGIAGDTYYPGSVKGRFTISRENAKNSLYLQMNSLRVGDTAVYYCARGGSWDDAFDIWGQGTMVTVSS VL: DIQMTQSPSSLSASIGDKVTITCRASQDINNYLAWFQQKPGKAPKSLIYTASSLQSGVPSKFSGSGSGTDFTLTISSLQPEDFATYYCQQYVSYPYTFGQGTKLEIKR , give the reported EC50. 0.2
